# Tested on: SF-539 CNS
# protocol-notes: NCI tumour cell line growth inhibition, 48 h; in the data active = GI50 below about 0.43 µM; inactive = the rest
Classes used: active, inactive

compound	qualitative-label
Nc1ccccc1C#C/C=C\C#Cc1cnccn1	inactive
O=C(Nc1ccc(-n2cc(-c3ccncc3)c(-c3ccc(O)c(Cl)c3)n2)cc1)c1cc(C(F)(F)F)cc(C(F)(F)F)c1	inactive
Cc1c([C@H](C(Cl)Cl)[C@H](O)[C@H]2C[C@H](C)C(=O)O2)ccc2c1C(=O)[C@H]1[C@H]2C[C@@H](Br)[C@@]23O[C@@H](CO[C@H]2O)CC13C (stereo not given in full)	active
COC(=O)C1=C(OC(=O)c2ccccc2)C(C(=O)OC)[C@]2(O)[C@@H](C(=O)OC)C1CC(c1ccccc1OC)[C@@H]2C(=O)OC (stereo not given in full)	inactive
O=C(NC(=S)Nc1ccccn1)c1ccccc1	inactive
Oc1ccc(Nc2nc3ccccc3c3occc23)cc1	inactive
CCn1c2ccccc2c2cc(/C=C(/C#N)C(N)=S)ccc21	inactive
Cn1c(=O)n(CCCO)c(=O)c2c1nc(Oc1cccc(OC(F)(F)F)c1)n2Cc1ccc(Cl)cc1	inactive
O=C(/C=C/c1cc2ccccc2[nH]c1=O)c1ccc(Cl)cc1	inactive
C=CCn1c(SCC(=O)Nc2ccc(C(=O)/C=C/c3cc(OC)c(OC)c(OC)c3)cc2)nnc1-c1ccc(Cl)cc1	inactive

====

# Tested on: DMS 273 small cell lung
# protocol-notes: NCI tumour cell line growth inhibition, 48 h
*1 amine or outer side, *2 acyl side, *3 side chain or, on linkers, in order; H or OH if unused. Where a SMILES comes first, the peptide text is derived from it. [ ]: non-standard residue; d: D form. ξ: configuration not given here. Ile(3ξ) = CCC(C)[C@H](N)C(=O)O; X33 = C=CCC(O[*:1])C(=O)[*:2]; NMeV = CN[C@H](C(=O)O)C(C)C; NMeA = CN[C@@H](C)C(=O)O; βAla = NCCC(=O)O

compound	TGI
CN(C)c1[se]nc2c1c(=O)n(C)c(=O)n2C	> 100 µM
CN(C)c1nc(=Nc2ccc3c(c2)OCO3)ss1	> 100 µM
CCNCCCCNCCCCNCCCCNCCCCNCC	> 100 µM
CCN1C(=O)N(C)C(O)c2c1nc1ccccn1c2=O (centres undefined)	42.4 µM
COc1ccc([C@@H]2C[C@@H]3C(=O)OC(=O)[C@@H]3c3c2c2ccccc2n3C)cc1	> 100 µM
Cn1c2c([N+](=O)[O-])cccc2c(=O)c2c(O)cc3c(c21)C=CC(C)(C)O3	> 100 µM
C=CCc1cc(OC)c2c(c1)C(OC(C)=O)CC(c1ccc(OC)c(OC)c1)O2 (centres undefined)	> 100 µM
C=CCC1OC(=O)CCNC(=O)[C@H](C)N(C)C(=O)[C@H](C(C)C)N(C)C(=O)[C@H](C(C)CC)NC(=O)[C@@H]2CCCN2C1=O (some centres undefined) (cyclo([Ile(3ξ)][NMeV][NMeA][βAla][X33]P))	28.9 µM
CCOC(=O)C(C(CC(=O)OC)NC(=O)OCc1ccccc1)C1(C)OCCO1 (centres undefined)	> 100 µM

====

Overview of reported TGI across a group of molecules:
# System: PC-3 prostate
# protocol-notes: NCI tumour cell line growth inhibition, 48 h

molecule	target-desc	TGI
CC(C)/C(Cl)=N\OC(=O)Nc1ccc(F)cc1	PC-3 prostate	31.4 µM
Cc1ccc(C)c2c1C/C(=C\c1ccccc1C(=O)O)C2=O	PC-3 prostate	> 100 µM
CNC(=O)C(CCc1ccccc1)NC(=O)C(CC(=O)NO)CC(C)C (stereo unspecified)	PC-3 prostate	> 25 µM
O=C1C=CC(=O)c2c(O)ccc(O)c21	PC-3 prostate	29.5 µM
Nc1n[n+](=O)c2ccccc2n1O	PC-3 prostate	> 100 µM
CO[C@@H]1C[C@H]2[C@@H]3CC[C@H]([C@H](C)CO)[C@@]3(C)CC[C@@H]2[C@@]2(C)CC[C@H]3C[C@]312	PC-3 prostate	92.6 µM
